- System: A2780CP20 ovarian cancer cell line
- assay-summary: MTS proliferation assay: cisplatin sensitivity after siRNA pretreatment
- Assay type: cell-based
- test-conditions: A2780CP20 cells, compared to siNEG
d = 2'-deoxy (DNA); r = 2'-OH (RNA)
Listing of entries alongside the reported fold change in cisplatin sensitivity.
Reply numerically in fold, unit not repeated.

Would you please look over these solved cases?
substance: siREV3L-2: synthetic siRNA against REV3L (exon 17), Qiagen cat #SI00045633, SEQ ID NO:5 sense and SEQ ID NO:6 antisense (sense CACUGGAAUUAAUGCACAATT; antisense UUGUGCAUUAAUUCCAGUGTG; sugars from the 5' end r19 d2, backbone not given here)
fold change in cisplatin sensitivity, fold: 2.9
--
substance: siPOLH-5: synthetic siRNA against POLH (exon 11), Qiagen cat #SI02663619, SEQ ID NO:11 sense and SEQ ID NO:12 antisense (sense GGUUGUGAGCAUUCGUGUATT; antisense UACACGAAUGCUCACAACCTG; sugars from the 5' end r19 d2, backbone not given here)
fold change in cisplatin sensitivity, fold: 1.9
--
substance: siREV3L-1: synthetic siRNA against REV3L (exon 18), Qiagen cat #SI00045626, SEQ ID NO:2 sense and SEQ ID NO:3 antisense (sense GGAUGUAGUCAAACUGCAATT; antisense UUGCAGUUUGACUACAUCCAG; sugars from the 5' end r19 d2, backbone not given here)
fold change in cisplatin sensitivity, fold: 2.1

# value lookup — system A2780CP20 ovarian cancer cell line, readout fold change in cisplatin sensitivity, item siPOLH-2: synthetic siRNA against POLH (exon 10), Qiagen cat #SI00089012, SEQ ID NO:8 sense and SEQ ID NO:9 antisense (sense CCAUUUAGGUGCUGAGUUATT; antisense UAACUCAGCACCUAAAUGGAG; sugars from the 5' end r19 d2, backbone not given here) 1.6
